# study system: wild-type human cardiac sodium channel, hNav1.5 (late sodium current) in HEK293 cells (Homo sapiens, UniProt Q14524)
# Sequence (Q14524 whole entry): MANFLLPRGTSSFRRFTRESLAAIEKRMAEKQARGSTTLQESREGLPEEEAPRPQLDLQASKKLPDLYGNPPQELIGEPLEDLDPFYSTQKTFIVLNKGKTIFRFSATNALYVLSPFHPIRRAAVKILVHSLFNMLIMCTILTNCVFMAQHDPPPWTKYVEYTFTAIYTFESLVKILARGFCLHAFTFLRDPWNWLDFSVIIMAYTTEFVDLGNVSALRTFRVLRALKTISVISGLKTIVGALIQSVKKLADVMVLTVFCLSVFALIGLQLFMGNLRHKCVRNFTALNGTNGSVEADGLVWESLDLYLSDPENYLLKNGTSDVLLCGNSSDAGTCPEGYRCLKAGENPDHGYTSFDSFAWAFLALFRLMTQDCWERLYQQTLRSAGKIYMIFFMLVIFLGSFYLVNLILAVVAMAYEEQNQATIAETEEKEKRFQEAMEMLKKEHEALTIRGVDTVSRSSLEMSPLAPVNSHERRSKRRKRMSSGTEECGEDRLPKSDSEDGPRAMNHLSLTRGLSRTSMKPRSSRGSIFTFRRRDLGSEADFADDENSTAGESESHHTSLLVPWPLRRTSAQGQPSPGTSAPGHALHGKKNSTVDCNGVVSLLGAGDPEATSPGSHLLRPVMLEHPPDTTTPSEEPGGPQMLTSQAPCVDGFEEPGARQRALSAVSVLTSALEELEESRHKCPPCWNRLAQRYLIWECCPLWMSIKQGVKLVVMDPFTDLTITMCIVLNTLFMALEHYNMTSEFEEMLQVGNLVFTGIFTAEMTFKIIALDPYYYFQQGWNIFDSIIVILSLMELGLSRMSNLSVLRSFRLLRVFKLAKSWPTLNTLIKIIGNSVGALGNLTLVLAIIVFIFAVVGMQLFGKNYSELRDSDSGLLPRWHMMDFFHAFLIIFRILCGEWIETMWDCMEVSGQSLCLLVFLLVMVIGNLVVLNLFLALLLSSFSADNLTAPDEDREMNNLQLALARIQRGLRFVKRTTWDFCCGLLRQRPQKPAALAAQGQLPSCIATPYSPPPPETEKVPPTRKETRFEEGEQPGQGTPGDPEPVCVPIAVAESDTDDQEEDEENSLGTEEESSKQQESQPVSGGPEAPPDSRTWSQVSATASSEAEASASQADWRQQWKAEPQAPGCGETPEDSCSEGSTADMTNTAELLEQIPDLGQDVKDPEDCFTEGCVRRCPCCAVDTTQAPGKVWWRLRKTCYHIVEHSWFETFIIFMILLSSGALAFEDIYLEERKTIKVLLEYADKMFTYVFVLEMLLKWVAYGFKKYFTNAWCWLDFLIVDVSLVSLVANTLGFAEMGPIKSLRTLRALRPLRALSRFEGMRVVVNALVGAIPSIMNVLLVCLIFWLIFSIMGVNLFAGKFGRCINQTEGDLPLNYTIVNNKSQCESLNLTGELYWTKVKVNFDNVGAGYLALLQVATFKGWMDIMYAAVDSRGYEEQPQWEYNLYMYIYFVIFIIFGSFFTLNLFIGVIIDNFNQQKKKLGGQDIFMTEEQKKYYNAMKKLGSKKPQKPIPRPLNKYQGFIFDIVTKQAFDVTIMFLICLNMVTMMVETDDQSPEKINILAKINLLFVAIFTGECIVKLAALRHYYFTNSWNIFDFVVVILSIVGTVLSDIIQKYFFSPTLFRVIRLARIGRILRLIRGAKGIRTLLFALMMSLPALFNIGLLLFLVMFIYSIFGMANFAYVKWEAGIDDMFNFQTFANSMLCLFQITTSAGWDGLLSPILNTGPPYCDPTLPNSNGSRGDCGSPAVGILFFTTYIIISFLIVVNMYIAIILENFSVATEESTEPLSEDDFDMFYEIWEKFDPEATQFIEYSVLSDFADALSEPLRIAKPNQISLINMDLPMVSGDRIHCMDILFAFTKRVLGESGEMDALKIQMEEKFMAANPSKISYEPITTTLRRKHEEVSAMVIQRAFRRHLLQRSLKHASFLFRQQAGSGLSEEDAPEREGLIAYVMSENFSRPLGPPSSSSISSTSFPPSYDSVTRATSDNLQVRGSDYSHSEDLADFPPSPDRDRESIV
# assay name: Late INa screening assay (automated whole-cell patch clamp, PatchXpress)
# Assay type: cell-based
# details: HEK293, compound at 1 μM; late INa generated with 10 μM Tefluthrin (or 50 nM ATX II); HEK293 hNav1.5; read-out: Late INa 1 μM (percent block of late INa)
Tick Fulfilled if inhibition at 1 µM is 30% or greater. Tick Not fulfilled if inhibition at 1 µM is less than 30%.

compound: N#Cc1ccccc1OCC(O)Cn1nc2ccc(-c3ccc(OC(F)(F)F)cc3)cn2c1=O (stereo not drawn)
group label: Not fulfilled
--
compound: CC(C)Oc1ccnc(OCCn2nc3ccc(-c4ccc(OC(F)(F)F)cc4)cn3c2=O)n1
group label: Not fulfilled
--
compound: O=c1n(CCOc2nccc(OCCO)n2)nc2ccc(-c3ccc(OC(F)(F)F)cc3)cn12
group label: Not fulfilled
--
compound: COCc1nc(Cn2nc3ccc(-c4ccc(OC(F)(F)F)cc4)cn3c2=O)no1
group label: Not fulfilled
--
compound: O=c1n(Cc2nc(-c3ccccc3Cl)no2)nc2ccc(-c3ccc(OC(F)(F)F)cc3)cn12
group label: Not fulfilled
--
compound: O=c1n(CCCOc2cccnn2)nc2ccc(-c3ccc(OC(F)(F)F)cc3)cn12
group label: Not fulfilled
--
compound: Cc1ccnc(CCn2nc3ccc(-c4ccc(OC(F)(F)F)cc4)cn3c2=O)c1
group label: Not fulfilled
--
compound: COc1ccccc1OCC(Cn1nc2ccc(-c3ccc(OC(F)(F)F)cc3)cn2c1=O)OC (stereo not drawn)
group label: Fulfilled
--
compound: CC(=O)OCc1nc(Cn2nc3ccc(-c4ccc(OC(F)(F)F)cc4)cn3c2=O)no1
group label: Not fulfilled
--
compound: COc1ccccc1OCCCn1nc2ccc(-c3ccc(OC(F)(F)F)cc3)cn2c1=O
group label: Fulfilled
--
compound: O=c1n(Cc2nc(C3CC3)co2)nc2ccc(-c3ccc(OC(F)(F)F)cc3)cn12
group label: Fulfilled
--
compound: O=c1n(Cc2noc(-c3cccc(C(F)(F)F)c3)n2)nc2ccc(-c3ccc(OC(F)(F)F)cc3)cn12
group label: Not fulfilled
--
compound: O=c1n(Cc2cccc(C(F)(F)F)n2)nc2ccc(-c3ccc(OC(F)(F)F)cc3)cn12
group label: Not fulfilled
--
compound: COC(COc1ccccc1Cl)Cn1nc2ccc(-c3ccc(OC(F)(F)F)cc3)cn2c1=O (stereo not drawn)
group label: Fulfilled
--
compound: O=c1n(CCCOc2ccccc2C(F)(F)F)nc2ccc(-c3ccc(OC(F)(F)F)cc3)cn12
group label: Not fulfilled
--
compound: Cc1cccnc1-c1cc(Cn2nc3ccc(-c4ccc(OC(F)(F)F)cc4)cn3c2=O)no1
group label: Fulfilled
--
compound: Cc1oc(-c2ccccc2)nc1Cn1nc2ccc(-c3ccc(OC(F)(F)F)cc3)cn2c1=O
group label: Not fulfilled
--
compound: Cc1noc(Cn2nc3ccc(-c4ccc(OC(F)(F)F)cc4)cn3c2=O)n1
group label: Not fulfilled
--
compound: CC1(C)OC[C@@H](c2nc(Cn3nc4ccc(-c5ccc(OC(F)(F)F)cc5)cn4c3=O)no2)O1
group label: Not fulfilled
--
compound: Cc1nc(Cn2nc3ccc(-c4cccc(Oc5ccccc5)c4)cn3c2=O)no1
group label: Not fulfilled
--
compound: Cc1nc(COCCn2nc3ccc(-c4ccc(OC(F)(F)F)cc4)cn3c2=O)no1
group label: Not fulfilled
--
compound: C[Si](C)(C)c1ccc(-c2ccc3nn(CCOc4ncccn4)c(=O)n3c2)cc1
group label: Fulfilled
--
compound: Cn1nc2ccc(-c3ccc(OC(F)(F)F)cc3)cn2c1=O
group label: Fulfilled
--
compound: O=c1n(Cc2nc(C3CC3)co2)nc2ccc(-c3ccc(C(F)(F)F)cc3)cn12
group label: Not fulfilled
--
compound: COc1cc(Cl)c(Cl)cc1OCC(O)Cn1nc2ccc(-c3ccc(C(F)(F)F)cc3)cn2c1=O (stereo not drawn)
group label: Not fulfilled
--
compound: COc1ccc(Br)c(CCn2nc3ccc(-c4ccc(OC(F)(F)F)cc4)cn3c2=O)n1
group label: Fulfilled
--
compound: COc1cc(F)ccc1OCCCn1nc2ccc(-c3ccc(OC(F)(F)F)cc3)cn2c1=O
group label: Not fulfilled
--
compound: Cc1noc(Cn2nc3ccc(-c4ccc(OC(F)(F)F)cc4C)cn3c2=O)n1
group label: Not fulfilled
--
compound: O=c1n(CCc2ccc(F)cc2F)nc2ccc(-c3ccc(OC(F)(F)F)cc3)cn12
group label: Fulfilled
--
compound: O=c1n(CCOc2nccn3cccc23)nc2ccc(-c3ccc(OC(F)(F)F)cc3)cn12
group label: Fulfilled
--
compound: O=c1n(CCc2ncccc2C2CC2)nc2ccc(-c3ccc(OC(F)(F)F)cc3)cn12
group label: Fulfilled
